Listed here are compounds together with their documented minimal effective concentration.
Test system: Mouse B16 melanoma cells
Assay: Melanin production inhibition test
Assay type: cell-based
Conditions: 72 h; mouse B16 melanoma cells, three days after addition; minimum non-cytotoxic final concentration at which ratio of melanin amount was 80% or less; read-out: Inhibitory effect on melanin production

# example entries with known answers
Ask | Tell me measured minimal effective concentration for Cc1cc(C)nc(-n2cccn2)n1 please.
Reply | 1 to 10 µg/mL

Ask | Give minimal effective concentration for Cc1cn(-c2nc(C)cc(C)n2)cn1
Reply | ≤ 1 µg/mL

Ask | Tell me measured minimal effective concentration for Cc1cc(C)nc(-n2ccnc2C)n1 please.
Reply | ≤ 1 µg/mL

Ask | Determine its reported minimal effective concentration: Cc1cc(C)nc(-n2nc(C)cc2O)n1
Reply | 1 to 10 µg/mL

Ask | Specify minimal effective concentration for Cc1cc(C)nc(N2CC(C)CC(C)C2)n1 (stereo not drawn) and stop.
Reply | 1 to 10 µg/mL

Others:
Ask | For the compound CCc1c(C)nn(-c2nc(C)cc(C)n2)c1O , report minimal effective concentration.
Reply | ≤ 1 µg/mL

Ask | For CNc1cc(C)nc(-n2nc(C)cc2C)n1 , write its minimal effective concentration.
Reply | ≤ 1 µg/mL

Ask | For the compound Cc1cc(C)nc(-n2ncc3c2/C(=C/c2ccc(Cl)cc2)CC3)n1 , report minimal effective concentration.
Reply | ≤ 1 µg/mL
